Recorded values, source PubChem BioAssay AID623870.

tested.target: Transforming acidic coiled-coil-containing protein 3 (Homo sapiens) (UniProt Q9Y6A5)
assay.comment: inhibitors of ARNT PAS-B binding to TACC3 – biochemical, AlphaScreen, single concentration, primary screen (AID 623870);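 note: 0% = complete ARNT plus TACC3 wells and 100% = ARNT alone without TACC3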
experimental.context: AlphaScreen His-ARNT PAS-B/GST-TACC3 binding, luminescence; at 9.99 µM; active compounds read high; TACC3 fragment carries E629A point mutation
The campaign covered roughly 390,000 compounds. About 2,600 (0.67%) were called active. The sample as a whole holds a higher share of actives than the screen did.

chemical.smiles	inhibition / %
COc1c(O)cc2oc(-c3ccc(O)c(O)c3)cc(=O)c2c1O	36.8
COc1ccc(C)cc1NC(=O)CSc1nnc2ccc(-c3ccccn3)nn12	12.1
CC(C)OC(=O)N(C)C[C@@H]1OCc2ccccc2-c2c(n(C)c3ccccc23)C(=O)N([C@H](C)CO)C[C@H]1C	5.73
C[C@@H]1CN([C@H](C)CO)C(=O)c2cc(C#CCN(C)C)cnc2O[C@@H]1CN(C)C(=O)Cc1cccnc1	-0.97
CO[C@H](CN(C)C(=O)c1cnccn1)[C@@H](C)CN([C@@H](C)CO)S(=O)(=O)c1ccc(C)cc1	3.1
CCC(=O)N(C)C[C@H]1Oc2cc(C#CCOC)ccc2S(=O)(=O)N([C@H](C)CO)C[C@H]1C	1.93
COc1cc(NC(=O)CSc2ccc(-c3cccnc3)nn2)cc(OC)c1	-3.2
O=C(C[C@H]1CC[C@H]2[C@@H](COC[C@H](O)CN2Cc2ccncc2)O1)NCC1CC1	14.4
C/C=C/c1cnc2c(c1)C(=O)N([C@H](C)CO)C[C@H](C)[C@@H](CN(C)S(=O)(=O)c1ccccc1F)O2	-4.04
CN(C)C(=O)c1cccc(-c2ccc3c(c2)[C@H]2[C@H](CCN2C(=O)Cc2ccccc2)[C@H](CO)N3)c1	-7.24
O=C(C[C@H]1C[C@@H]2c3cc(NC(=O)C4CCOCC4)ccc3O[C@@H]2[C@H](CO)O1)NCC1CC1	-7.92
Cc1noc(C)c1S(=O)(=O)N(C)C[C@H]1OCCCC[C@@H](C)Oc2ccc(NC(=O)c3ccccc3)cc2C(=O)N([C@@H](C)CO)C[C@H]1C	-4.16
O=c1nc2s/c(=C\c3ccco3)c(=O)n2nc1Cc1ccccc1	67.7
Cc1ccc(S(=O)(=O)NCC[C@H]2CC[C@@H](NS(=O)(=O)c3ccccc3Cl)[C@H](CO)O2)cc1	2.36
O=c1/c(=C/c2ccc(CNS(=O)(=O)c3ccccc3)o2)sc2n1CCN=2	40.1
N#C[C@@H]1[C@@H](c2ccc(-c3cccnc3)cc2)[C@H](CO)N1C(=O)Nc1ccc(F)cc1	-8.19
COc1ccc(S(=O)(=O)N[C@@H]2CC[C@@H](CC(=O)NCCc3ccccc3)O[C@@H]2CO)cc1	-3.62

====

tested.target: Transforming acidic coiled-coil-containing protein 3 (Homo sapiens)
assay.comment: inhibitors of ARNT PAS-B binding to TACC3 – biochemical, AlphaScreen, single concentration, primary screen (AID 623870);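 note: 0% = complete ARNT plus TACC3 wells and 100% = ARNT alone without TACC3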
experimental.context: AlphaScreen His-ARNT PAS-B/GST-TACC3 binding, luminescence; at 9.99 µM; TACC3 fragment carries E629A point mutation
Hit rate of the full screen: of about 390,000 compounds, about 2,600 (0.67%) were called active.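 The calls were made as follows: active = mean inhibition of replicates at least 50% and at least half of replicates each reaching 50%; inconclusive = half or more replicates reach 50% but mean below 50%; inactive = the rest.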 The full list was thinned out, with actives kept by preference.
Classes used: active, inactive

molecule	category.label
COc1cccc(NC(=O)C[C@H]2CC[C@@H]3[C@H](COc4ccc(NC(C)=O)cc4C(=O)N3C)O2)c1	inactive
O=C(N[C@@H]1CC[C@H](CCn2cc(-c3ccccc3)nn2)O[C@H]1CO)c1cnccn1	inactive
CN(C)Cc1cn(CC[C@H]2CC[C@@H](NS(=O)(=O)c3ccccc3)[C@H](CO)O2)nn1	inactive
CCn1cc(/C=C2/SC(=S)NC2=O)c(C)n1	active
C[C@H]1CN([C@@H](C)CO)S(=O)(=O)c2ccc(-c3ccncc3)cc2O[C@@H]1CN(C)C(=O)CC1CC1	inactive
CC(C)CC#Cc1ccc2c(c1)O[C@H](CN(C)C(=O)c1cccnc1)[C@@H](C)CN([C@H](C)CO)S2(=O)=O	inactive
CC(=O)Nc1ccc2c(c1)C(=O)N(C)[C@H]1CC[C@@H](CC(=O)NCC3CC3)O[C@H]1CO2	inactive
CCSC1(SCC)N=C(N)C2(C#N)C(c3ccccc3)NC(C)=CC12C#N (configuration not stated)	active
C[C@H](CO)N1C[C@H](C)[C@H](CN(C)C(=O)Nc2cccc3ccccc23)Oc2ccc(NS(C)(=O)=O)cc2C1=O	inactive
COc1cc(C2C(C#N)=C(N)Oc3n[nH]c(-c4ccccn4)c32)cc(OC)c1OC (configuration not stated)	active
CC(C)CC#Cc1cnc2c(c1)C(=O)N([C@@H](C)CO)C[C@H](C)[C@@H](CN(C)C(=O)c1ccc(F)cc1)O2	inactive
CCCN1C[C@@H](C)[C@H](OC)CN(C)C(=O)c2ccc(NC(=O)C3CCOCC3)cc2OC[C@@H]1C	inactive
COc1cc(Cl)cc(C2NC(=O)NC(C)=C2C(=O)NCc2ccccc2)c1O (configuration not stated)	inactive
O=C(N[C@@H]1CC[C@H](CCn2cc(-c3ccccn3)nn2)O[C@@H]1CO)c1ccccc1	active
COc1ccccc1-c1cn(CC[C@@H]2CC[C@@H](NC(=O)c3ccccc3F)[C@H](CO)O2)nn1	inactive
C[C@H](CO)N1C[C@H](C)[C@H](CN(C)C)Oc2ccc(NC(=O)Cc3ccccc3)cc2CC1=O	inactive
C[C@H]1CN([C@@H](C)CO)C(=O)Cc2cc(NC(=O)CCC(F)(F)F)ccc2O[C@H]1CN(C)C(=O)NC1CCCCC1	inactive

====

tested.target: Transforming acidic coiled-coil-containing protein 3 (Homo sapiens) (UniProt Q9Y6A5)
assay.comment: inhibitors of ARNT PAS-B binding to TACC3 – biochemical, AlphaScreen, single concentration, primary screen (AID 623870);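 note: 0% = complete ARNT plus TACC3 wells and 100% = ARNT alone without TACC3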
experimental.context: AlphaScreen His-ARNT PAS-B/GST-TACC3 binding, luminescence; at 9.99 µM; TACC3 fragment carries E629A point mutation
Out of some 390,000 compounds screened, about 2,600 (0.67%) were called active.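 How the source made its calls: active means mean inhibition of replicates at least 50% and at least half of replicates each reaching 50%; inconclusive means half or more replicates reach 50% but mean below 50%; inactive means the rest.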 This excerpt belongs to a sample that is enriched for actives.
Classes used: active, inactive

chemical.smiles	category.label
CC(C)NC(=O)N(C)C[C@H]1Oc2cc(C#Cc3ccccn3)ccc2S(=O)(=O)N([C@H](C)CO)C[C@@H]1C	inactive
C/C=C/c1ccc2c(c1)O[C@@H](CN(C)C(=O)Cc1ccccn1)[C@@H](C)CN([C@H](C)CO)S2(=O)=O	inactive
O=C(OCC(=O)c1cccs1)c1ccc([N+](=O)[O-])o1	inactive
N/C(Cc1ccc([N+](=O)[O-])cc1)=N\OC(=O)COc1ccc2ccccc2c1	inactive
O=C(COC(=O)c1ccc([N+](=O)[O-])o1)NC12CC3CC(CC(C3)C1)C2	active
O=C(COC(=O)c1ccc(Br)o1)NC12CC3CC(CC(C3)C1)C2	inactive
CNC[C@H]1Oc2cc(C#Cc3ccccc3)ccc2S(=O)(=O)N([C@@H](C)CO)C[C@@H]1C	inactive
CNC[C@@H]1OCCCC[C@H](C)Oc2ccc(NC(=O)Nc3ccc(OC)cc3)cc2C(=O)N([C@H](C)CO)C[C@@H]1C	inactive
CNC[C@H]1Oc2cc(C#Cc3ccccn3)ccc2S(=O)(=O)N([C@H](C)CO)C[C@@H]1C	active

====

tested.target: Transforming acidic coiled-coil-containing protein 3 (Homo sapiens) (UniProt Q9Y6A5)
assay.comment: inhibitors of ARNT PAS-B binding to TACC3 – biochemical, AlphaScreen, single concentration, primary screen (AID 623870);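 note: 0% = complete ARNT plus TACC3 wells and 100% = ARNT alone without TACC3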
experimental.context: AlphaScreen His-ARNT PAS-B/GST-TACC3 binding, luminescence; at 9.99 µM; active compounds read high; TACC3 fragment carries E629A point mutation
The campaign covered roughly 390,000 compounds. About 2,600 (0.67%) were called active. The sample holds actives, similar compounds and a random draw of the others, so the mix is not that of the screen.
Measured inhibition, listed per entry.
measurement.label: inhibition (%)

compound	endpoint.value
COc1cccc(C(CC(=O)NCCN2CCOCC2)NS(=O)(=O)c2ccc(C)cc2)c1OC (stereo not given)	-9.59
CCc1cccc(NC(=O)COC(=O)c2cc(=O)c3ccccc3o2)c1	-1.51
C[C@@H]1CN([C@@H](C)CO)C(=O)c2cc(-c3cncnc3)cnc2O[C@@H]1CN(C)C(=O)c1ccccc1F	-2.75
CCc1cc(=O)oc2c(C)c(OCC(=O)NCCN3CCOCC3)ccc12	-0.887
CC(=O)Nc1cccc(C(=O)OCC(=O)Nc2nnc(-c3ccccc3)o2)c1	55.1
Cc1ccc(NC(=O)CSc2nn3c(=O)c(C)nnc3s2)cc1Cl	56.2
C[C@H]1CN([C@@H](C)CO)C(=O)c2cc(N(C)C)ccc2O[C@@H]1CN(C)C(=O)Nc1ccc2c(c1)OCO2	12.1
C[C@H](CO)N1C[C@H](C)[C@H](CN(C)C(=O)Cc2ccccn2)Oc2ncc(-c3cncnc3)cc2C1=O	-0.547
Cc1ccccc1CSc1nnc(-c2cccnc2)n1N	-2.01
Oc1cccc(/C=N/Nc2ccc(Cl)nn2)c1O	53.7
